B1: Caulobacter ParB omega fusion; a variant is named by its letters at X, in order, B8GW30 (parent)
chain: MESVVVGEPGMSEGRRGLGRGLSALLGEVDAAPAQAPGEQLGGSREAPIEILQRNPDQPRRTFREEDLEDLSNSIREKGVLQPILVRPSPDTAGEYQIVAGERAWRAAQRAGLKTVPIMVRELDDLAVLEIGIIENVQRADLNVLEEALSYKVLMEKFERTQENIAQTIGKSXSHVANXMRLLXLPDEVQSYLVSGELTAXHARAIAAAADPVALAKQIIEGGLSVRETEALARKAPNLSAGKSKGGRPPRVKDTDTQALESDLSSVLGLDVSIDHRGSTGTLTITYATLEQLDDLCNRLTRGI

- Variants of: B1
- PROTOCOL TEXT: one-hybrid fitness for binding parS DNA (scaled: cognate 1, non-cognate 0); higher = stronger binding
- MEASUREMENT CONDITIONS: with parS DNA site
In all, about 81,000 sequences were measured (“one-hybrid fitness for binding parS DNA”: median about -0.17, highest 2% from about 0.51 on). Only a selection was taken, and the highest values are over-represented in it overall.
PROPERTY: one-hybrid fitness for binding parS DNA

Below, 4 variants whose answers are already recorded.
>>> df
   variant_designation  meas_value
0                 MKLG       ≤ 0.2
1                 NKDH       ≤ 0.2
2                 SHEG       ≤ 0.2
3                 SCKV       ≤ 0.2

Provide reported one-hybrid fitness for binding parS DNA for each item, in the same order as listed.
1. RVQN
2. SSGG
3. TSYY
4. QQPM
5. FTPD

1. 0.417
2. ≤ 0.2
3. ≤ 0.2
4. ≤ 0.2
5. ≤ 0.2

Provide reported one-hybrid fitness for binding parS DNA for each item, in the same order as listed.
1. RVWR
2. IWPL
3. CTTW
4. RHLS
5. LHTY
6. TKKI
7. RVDH
8. RVLQ

1. ≤ 0.2
2. ≤ 0.2
3. ≤ 0.2
4. 0.978
5. ≤ 0.2
6. ≤ 0.2
7. ≤ 0.2
8. ≤ 0.2

Provide reported one-hybrid fitness for binding parS DNA for each item, in the same order as listed.
1. RVQP
2. IYPG
3. GAHD
4. MHLM
5. RVWT
6. RVDD

["≤ 0.2", "≤ 0.2", "≤ 0.2", "≤ 0.2", 0.886, "≤ 0.2"]

Provide reported one-hybrid fitness for binding parS DNA for each item, in the same order as listed.
1. CCLT
2. RHEA
3. RHLD
4. WVPC

1. ≤ 0.2
2. 0.512
3. ≤ 0.2
4. ≤ 0.2

Provide reported one-hybrid fitness for binding parS DNA for each item, in the same order as listed.
1. QLTV
2. TTEV
3. RPNY
4. VMRY
5. RVDT
6. MMTD
7. LVSA
8. RHWP

≤ 0.2
≤ 0.2
≤ 0.2
≤ 0.2
0.741
≤ 0.2
≤ 0.2
≤ 0.2

Provide reported one-hybrid fitness for binding parS DNA for each item, in the same order as listed.
1. PSHG
2. CGSR
3. LIKM

1: ≤ 0.2; 2: ≤ 0.2; 3: ≤ 0.2

Provide reported one-hybrid fitness for binding parS DNA for each item, in the same order as listed.
1. RIDY
2. VCRG
3. CKVC

1: 0.396; 2: ≤ 0.2; 3: ≤ 0.2

Provide reported one-hybrid fitness for binding parS DNA for each item, in the same order as listed.
1. CTYA
2. LRIP

["≤ 0.2", "≤ 0.2"]
